molecular target: Neurotensin receptor type 1 (Homo sapiens); experiment: NTR1 agonists in analog series, SAR follow-up, imaging, image-based, set 3 (AID 602356); details: NTR1 image-based agonist assay, cellular imaging; call rule not given here
Tick one outcome: Yes (active), No (inactive)

In: Tell me the recorded outcome of this test for "COc1ccc(-c2nnc3c4cc(OC)c(OC)cc4n(Cc4ccccc4)cc2-3)cc1" .
Out: Yes

====

target: UniProt P30989; test: NTR1 agonists in analog series, SAR follow-up, imaging, image-based, set 3 (AID 602356); details: NTR1 image-based agonist assay, cellular imaging
Sequence (P30989 whole entry, looked up): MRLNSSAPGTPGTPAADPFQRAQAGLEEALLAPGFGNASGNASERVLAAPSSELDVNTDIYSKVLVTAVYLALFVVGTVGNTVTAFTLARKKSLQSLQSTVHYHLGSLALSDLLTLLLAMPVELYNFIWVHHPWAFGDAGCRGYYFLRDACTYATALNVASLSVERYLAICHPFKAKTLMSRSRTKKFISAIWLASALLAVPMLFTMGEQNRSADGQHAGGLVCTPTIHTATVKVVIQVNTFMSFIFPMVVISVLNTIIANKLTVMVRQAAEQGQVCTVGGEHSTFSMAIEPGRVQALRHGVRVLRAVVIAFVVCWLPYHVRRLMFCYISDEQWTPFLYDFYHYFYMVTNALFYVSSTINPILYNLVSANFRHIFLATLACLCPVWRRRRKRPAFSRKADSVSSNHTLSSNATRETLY
Activity calls are given as the source filed them. The rule behind the calls is not given here.
Pick one: True (active), False (inactive)

Use the examples below as a reference point.
{"Line notation": "COc1cc2c3nnc(-c4ccc(F)cc4)c-3cn(Cc3ccc(F)cc3)c2cc1OC", "Class label": "True"}
{"Line notation": "COc1cc2nc(C3CCCC3)nc(N3CCN(c4ccccc4OC)CC3)c2cc1OC", "Class label": "True"}
{"Line notation": "CCOc1ccccc1N1CCN(c2nc(C3CC3)nc3cc(OC)c(OC)cc23)CC1", "Class label": "True"}
{"Line notation": "COc1cc2c3nnc(-c4ccc(F)cc4)c-3cn(Cc3ccc(Cl)cc3)c2cc1OC", "Class label": "True"}
{"Line notation": "CCOc1ccc(-c2nnc3c4cc(OC)c(OC)cc4n(Cc4ccccc4)cc2-3)cc1", "Class label": "True"}

In: Returns: the outcome recorded for "COc1ccc(-c2nnc3c4ccccc4n(CCc4ccccc4)cc2-3)cc1" in this assay.
Out: False

In: Can you look up the reported call for "COc1ccc(-c2nnc3c4ccccc4n(Cc4ccc(Cl)cc4)cc2-3)cc1" for me?
Out: False

In: What is the recorded call for this molecule in the test? "COc1ccc(-c2nc(C(=O)N[C@@H](CC(C)C)C(=O)O)cn2-c2ccnc3cc(Cl)ccc23)c(OC)c1"
Out: False

In: Tell me the recorded outcome of this test for "COc1ccccc1-c1nc(C(=O)N[C@@H](CC(C)C)C(=O)O)cn1-c1ccnc2cc(Cl)ccc12" .
Out: False

The measurements presented in this section are drawn from PubChem BioAssay AID602356.
